Tested on: A549
Assay: Antiproliferative activity against human A549 cells assessed as reduction in cell viability after 48 hrs by MTT assay
Format: functional, cell-based
Details: A549, 48 h
measured-endpoint: log10 of IC50 (log10 of the value in µM)
On a log10 scale: recorded IC50, unit µM.

For orientation, consider the following solved cases.
{"chem-smiles": "CC(C)=CCC[C@]1(C)/C=C/[C@@H](OC(=O)C=C(C)C)[C@](C)(O)/C=C/C(=O)/C(CN2CCCC2)=C\\C1", "system-tested": "A549", "meas-value": -0.74}
{"chem-smiles": "CC(C)=CCC[C@]1(C)/C=C/[C@@H](OC(=O)C=C(C)C)[C@](C)(O)/C=C/C(=O)/C(CO)=C\\C1", "system-tested": "A549", "meas-value": 0.54}
{"chem-smiles": "CO[C@]1(C)/C=C/C(=O)/C(CO)=C\\C[C@](C)(CCC=C(C)C)/C=C/[C@H]1OC(=O)C=C(C)C", "system-tested": "A549", "meas-value": 1.16}
{"chem-smiles": "CC[Si](CC)(CC)OC/C1=C/C[C@](C)(CCC=C(C)C)/C=C/[C@@H](OC(=O)C=C(C)C)[C@](C)(O)/C=C/C1=O", "system-tested": "A549", "meas-value": 0.49}
{"chem-smiles": "CC(=O)O[C@]1(C)/C=C/C(=O)/C(CO)=C\\C[C@](C)(CCC=C(C)C)/C=C/[C@H]1OC(=O)C=C(C)C", "system-tested": "A549", "meas-value": 0.50}

Please find the next compound below.
Data request: Can you look up the measured log10 of IC50 of CC(C)=CCC[C@]1(C)/C=C/[C@@H](OC(=O)C=C(C)C)[C@](C)(O)/C=C/C(=O)/C(CN2CCN(C)CC2)=C\C1 for me?
Data returned: -0.03

----------
Assignment: determine reported IC50 for the given compounds.
System: MDA-MB-468
Assay: Antiproliferative activity against human MDA-MB-468 cells assessed as reduction in cell viability after 48 hrs by MTT assay
Type: functional, cell-based
Settings: MDA-MB-468, 48 h
Numbers only, in µM.

{"chem-smiles": "CC(C)=CCC[C@]1(C)/C=C/[C@@H](OC(=O)C=C(C)C)[C@](C)(O)/C=C/C(=O)/C(CF)=C\\C1", "readout-units": "µM", "meas-value": 0.31}

Data request: Look at this compound and give its reported IC50. CC(C)=CCC[C@]1(C)/C=C/[C@@H](OC(=O)C=C(C)C)[C@](C)(O)/C=C/C(=O)/C(CN2CCN(C)CC2)=C\C1
Data returned: 0.76

----------
Test system: SMMC-7721
Experiment: Antiproliferative activity against human SMMC7721 cells assessed as reduction in cell viability after 48 hrs by MTT assay
Format: functional, cell-based
Settings: SMMC-7721, 48 h
measured-endpoint: IC50 (µM)
Answers are plain numbers, in µM.

Completed entries (count: 2):
{"molecule": "CC(C)=CCC[C@]1(C)/C=C/[C@@H](OC(=O)C=C(C)C)[C@](C)(O)/C=C/C(=O)/C(CO[Si](C)(C)C(C)(C)C)=C\\C1", "measured-endpoint": "IC50", "readout-units": "µM", "meas-value": 4}
{"molecule": "CCN(CC)C/C1=C/C[C@](C)(CCC=C(C)C)/C=C/[C@@H](OC(=O)C=C(C)C)[C@](C)(O)/C=C/C1=O", "measured-endpoint": "IC50", "readout-units": "µM", "meas-value": 0.57}

Respectfully, I request IC50 for each entry included below.
1. CO/N=C/C1=C/C[C@](C)(CCC=C(C)C)/C=C/[C@@H](OC(=O)C=C(C)C)[C@](C)(O)/C=C/C1=O
2. COC/C1=C/C[C@](C)(CCC=C(C)C)/C=C/[C@@H](OC(=O)C=C(C)C)[C@](C)(OC)/C=C/C1=O

Data returned:
1: 3.47; 2: 9.38

----------
Test system: A549
Experiment: Antiproliferative activity against human A549 cells assessed as reduction in cell viability after 48 hrs by MTT assay
Type: functional, cell-based
Conditions: A549, 48 h
measured-endpoint: pIC50
Numbers only, as −log10 of the molar value.

{"chem-smiles": "CC(C)=CCC[C@]1(C)/C=C/[C@@H](OC(=O)C=C(C)C)[C@](C)(O)/C=C/C(=O)/C(C(=O)N2CCN(C)CC2)=C\\C1", "pIC50": 5.07}
{"chem-smiles": "COC/C1=C/C[C@](C)(CCC=C(C)C)/C=C/[C@@H](OC(=O)C=C(C)C)[C@](C)(O)/C=C/C1=O", "pIC50": 5.40}

For each of the compounds below, note its pIC50.
1. CC(C)=CCC[C@]1(C)/C=C/[C@@H](OC(=O)C=C(C)C)[C@](C)(O)/C=C/C(=O)/C(CN(C(C)C)C(C)C)=C\C1
2. CC(C)=CCC[C@]1(C)/C=C/[C@@H](OC(=O)C(C)C)[C@](C)(O)/C=C/C(=O)/C(CO)=C\C1
3. CC(C)=CCC[C@]1(C)/C=C/[C@@H](OC(=O)C=C(C)C)[C@](C)(O)/C=C/C(=O)/C(C(=O)N2CCOCC2)=C\C1
4. CC(C)=CCC[C@]1(C)/C=C/[C@@H](OC(=O)C=C(C)C)[C@](C)(O)/C=C/C(=O)/C(Cn2cc(CO)nn2)=C\C1

Data returned:
[6.19, 4.97, 5.78, 5.46]

----------
Tested on: MCF7
Test: Antiproliferative activity against human MCF7 cells assessed as reduction in cell viability after 48 hrs by MTT assay
Format: functional, cell-based
Details: MCF7, 48 h
IC50 under 10 µM gets true (1), anything at or over 10 µM gets false (0).

Data request: Answer whether the compound COCO[C@@H]1/C=C/[C@@](C)(CCC=C(C)C)C/C=C(/CO)C(=O)/C=C/[C@@]1(C)O has IC50 strictly less than 10 µM
Data returned: false (0)

Data request: Given the entry CC(C)=CCC[C@]1(C)/C=C/[C@@H](OC(=O)C=C(C)C)[C@](C)(O)/C=C/C(=O)/C(C(=O)N(C)C)=C\C1 , would its reported IC50 be below 10 µM?
Data returned: true (1)

Data request: Please indicate whether the reported IC50 of CO[C@@H]1/C=C/[C@@](C)(O)[C@H](OC(=O)C=C(C)C)/C=C/[C@@](C)(CCC=C(C)C)C/C=C\1CO is strictly below 10 µM.
Data returned: false (0)

Data request: For CC(C)=CCC[C@](C)(/C=C/[C@@H](OC(=O)C=C(C)C)[C@](C)(O)/C=C/C(=O)/C=C/N1CCOCC1)CC=O , is the recorded IC50 below the cut-off of 10 µM?
Data returned: false (0)

----------
Test system: SMMC-7721
Assay: Antiproliferative activity against human SMMC7721 cells assessed as reduction in cell viability after 48 hrs by MTT assay
Assay type: functional, cell-based
Details: SMMC-7721, 48 h
pIC50: −log10 of the molar value.
Please note: condition met applies when pIC50 is 5 or greater, and condition not met applies otherwise.

Data request: Determine whether measured pIC50 meets or exceeds 5 for COCO[C@@H]1/C=C/[C@@](C)(CCC=C(C)C)C/C=C(/CO)C(=O)/C=C/[C@@]1(C)O
Data returned: condition not met

Data request: Reported pIC50 reaches at least 5 for CC(C)=CCC[C@]1(C)/C=C/[C@@H](OC(=O)C=C(C)C)[C@](C)(O)/C=C/[C@H](O)/C(CO)=C\C1 ?
Data returned: condition not met

Data request: Please indicate if the recorded pIC50 for CC(=O)O[C@]1(C)/C=C/C(=O)/C(CO)=C\C[C@](C)(CCC=C(C)C)/C=C/[C@H]1OC(=O)C=C(C)C meets or exceeds 5.
Data returned: condition met

Data request: hey, is pIC50 for this one >= 5? CC(C)=CCC[C@]1(C)/C=C/[C@@H](OC(=O)C=C(C)C)[C@](C)(O)/C=C/C(=O)/C(CN2CCOCC2)=C\C1
Data returned: condition met

Data request: Threshold query (pIC50 >= 5) on CC(C)=CCC[C@]1(C)/C=C/[C@@H](OC(=O)C=C(C)C)[C@](C)(O)/C=C/[C@@H](O)/C(CO)=C\C1
Data returned: condition not met

Data request: Given CO[C@@H]1/C=C/[C@@](C)(O)[C@H](OC(=O)C=C(C)C)/C=C/[C@@](C)(CCC=C(C)C)C/C=C\1CO , state whether its pIC50 is at least 5.
Data returned: condition not met

Data request: Given the entry CO[C@]1(C)/C=C/C(=O)/C(CO)=C\C[C@](C)(CCC=C(C)C)/C=C/[C@H]1OC(=O)C=C(C)C , answer whether its pIC50 meets or surpasses 5.
Data returned: condition not met

Data request: Is pIC50 at least 5? Consider CSC(=S)OC/C1=C/C[C@](C)(CCC=C(C)C)/C=C/[C@@H](OC(=O)C=C(C)C)[C@](C)(O)/C=C/C1=O
Data returned: condition met

Data request: Kindly determine if pIC50 recorded for CC(C)=CCC[C@]1(C)/C=C/[C@@H](OC(=O)C=C(C)C)[C@](C)(O)CCC(=O)/C(CO)=C\C1 is above or exactly 5.
Data returned: condition not met
